Source listed as ChEMBL document CHEMBL3877278.

test: Lipophilicity, log D of the compound at pH 7.4 by HPLC method; type: physicochemical; settings: buffer, read-out: logD
metric: logD

INSERT INTO results (compound, metric, numeric_value) VALUES
  ('N#Cc1c(N2CCNCC2)c2ccccc2n2c1nc1ccccc12', 'logD', 2.22),
  ('N#Cc1c(Cl)c2ccc(F)cc2n2c1nc1ccccc12', 'logD', 6.05),
  ('N#CC1C(=O)c2ccc(F)cc2-n2c1nc1ccccc12 (stereo not given)', 'logD', 2.46),
  ('N#Cc1cc2ccc(N3CCNCC3)cc2n2c1nc1ccccc12', 'logD', 2.01),
  ('CN(C)CCCNc1c(C#N)c2nc3ccccc3n2c2ccccc12', 'logD', 2.26);

* * *

experiment: Antiproliferative activity against 2D culture of human T47D cells after 72 hrs MTS assay; format: functional, cell-based
pIC50: −log10 of the molar value.
pIC50 for assorted compounds
metric: pIC50

INSERT INTO results (entry_smiles, metric, operator_symbol, numeric_value) VALUES
  ('N#Cc1cc2ccc(F)cc2n2c1nc1ccccc12', 'pIC50', '<', 4.52),
  ('N#Cc1c(N2CCCCC2)c2ccc(N3CCCCC3)cc2n2c1nc1ccccc12', 'pIC50', '<', 4.52),
  ('N#Cc1c(Cl)c2sc3ccccc3c2n2c1nc1ccccc12', 'pIC50', '=', 6.00),
  ('COc1cccc2c1C(=O)c1c(O)c3c(c(O)c1C2=O)C[C@@](O)(C(=O)CO)C[C@@H]3O[C@H]1C[C@H](N)[C@H](O)[C@H](C)O1', 'pIC50', '=', 7.10),
  ('CN(C)CCCNc1ccc2c(c1)sc1cc(C#N)c3nc4ccccc4n3c12', 'pIC50', '=', 5.30);

* * *

experiment: Lipophilicity, log D of the compound at pH 2.7 by HPLC method; format: physicochemical; conditions: buffer
Each record here notes measured logD.
metric: logD

INSERT INTO results (entry_smiles, metric, result) VALUES
  ('CC(C)CNc1ccc2c(c1)sc1cc(C#N)c3nc4ccccc4n3c12', 'logD', 7.76),
  ('N#Cc1c(N2CCNCC2)c2sc3cc(N4CCNCC4)ccc3c2n2c1nc1ccccc12', 'logD', -0.51),
  ('N#Cc1c(N2CCNCC2)c2ccccc2n2c1nc1ccccc12', 'logD', 0.53),
  ('N#Cc1cc2sc3cc(F)ccc3c2n2c1nc1ccccc12', 'logD', 6.32),
  ('CC(C)CNc1ccc2cc(C#N)c3nc4ccccc4n3c2c1', 'logD', 6.45),
  ('N#Cc1cc2sc3cc(N4CCCCC4)ccc3c2n2c1nc1ccccc12', 'logD', 8.52),
  ('N#Cc1c(N2CCCCC2)c2sc3ccccc3c2n2c1nc1ccccc12', 'logD', 7.7),
  ('N#Cc1cc2ccc(F)cc2n2c1nc1ccccc12', 'logD', 5.14),
  ('CN(C)CCCNc1ccc2cc(C#N)c3nc4ccccc4n3c2c1', 'logD', 0.44),
  ('N#Cc1c(Cl)c2ccccc2n2c1nc1ccccc12', 'logD', 5.9),
  ('N#Cc1c(N2CCCCC2)c2ccccc2n2c1nc1ccccc12', 'logD', 6.36);

* * *

# IC50 per record follows
experiment: Antiproliferative activity against 2D culture of human T47D cells after 72 hrs MTS assay; format: functional, cell-based
metric: IC50 (µM)

INSERT INTO results (entry_smiles, unit_of_measure, operator_symbol, numeric_value) VALUES
  ('CN(C)CCCNc1c(C#N)c2nc3ccccc3n2c2c1sc1ccccc12', 'µM', '=', 4),
  ('N#Cc1c(N2CCNCC2)c2sc3ccccc3c2n2c1nc1ccccc12', 'µM', '=', 5),
  ('N#Cc1cc2sc3cc(N4CCCCC4)ccc3c2n2c1nc1ccccc12', 'µM', '>', 30),
  ('CC(C)CNc1ccc2cc(C#N)c3nc4ccccc4n3c2c1', 'µM', '=', 3),
  ('CC(C)CNc1ccc2c(c1)sc1c(NCC(C)C)c(C#N)c3nc4ccccc4n3c12', 'µM', '=', 4),
  ('N#Cc1c(N2CCCCC2)c2sc3ccccc3c2n2c1nc1ccccc12', 'µM', '=', 5),
  ('N#Cc1c(=O)c2sc3cc(F)ccc3c2n2c1[nH]c1ccccc12', 'µM', '>', 30),
  ('N#Cc1cc2ccc(N3CCNCC3)cc2n2c1nc1ccccc12', 'µM', '=', 15),
  ('N#Cc1c(Cl)c2sc3cc(F)ccc3c2n2c1nc1ccccc12', 'µM', '>', 30),
  ('N#Cc1c(N2CCCCC2)c2ccccc2n2c1nc1ccccc12', 'µM', '>', 30),
  ('N#Cc1c(N2CCCCC2)c2sc3cc(N4CCCCC4)ccc3c2n2c1nc1ccccc12', 'µM', '>', 30);
